Biological target: RNA-directed RNA polymerase (Hepacivirus hominis, UniProt O39930)
Sequence (O39930 whole entry): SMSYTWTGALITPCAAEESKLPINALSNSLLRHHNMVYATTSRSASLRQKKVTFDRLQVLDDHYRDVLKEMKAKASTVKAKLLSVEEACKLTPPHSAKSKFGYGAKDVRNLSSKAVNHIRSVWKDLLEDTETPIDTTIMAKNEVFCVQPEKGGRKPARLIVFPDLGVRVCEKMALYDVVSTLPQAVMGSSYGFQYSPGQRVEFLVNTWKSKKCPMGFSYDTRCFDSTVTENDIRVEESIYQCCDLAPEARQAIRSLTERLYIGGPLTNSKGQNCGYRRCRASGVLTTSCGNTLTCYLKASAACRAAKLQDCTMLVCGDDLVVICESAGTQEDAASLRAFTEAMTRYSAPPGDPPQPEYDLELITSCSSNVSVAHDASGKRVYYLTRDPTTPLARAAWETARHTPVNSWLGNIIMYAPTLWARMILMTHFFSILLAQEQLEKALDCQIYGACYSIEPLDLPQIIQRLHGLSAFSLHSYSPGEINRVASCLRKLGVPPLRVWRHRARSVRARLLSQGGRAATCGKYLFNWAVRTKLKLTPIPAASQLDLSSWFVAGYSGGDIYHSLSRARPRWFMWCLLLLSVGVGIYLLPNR
Experiment: Inhibition of Hepatitis C virus genotype 1b NS5B RNA-dependent-RNA polymerase
Design: species or system Hepatitis C virus subtype 1b
Measure: EC50

[[record]]
test_smiles = "Fc1ccccc1-c1nc2ccn(Cc3ccc(-c4ccc(C(F)(F)F)cc4C(F)(F)F)nn3)cc-2n1"
readout_value = "2.9 nM"


----------
Test: Apparent volume of distribution during terminal phase in Sprague-Dawley rat at 35 mg/kg, po administered via gavage by UPLC-MS analysis
Assay type: ADME, organism-based
Details: in vivo, read-out: Vz/F
Measure: Vd/F (L/kg)

[[record]]
test_smiles = "COc1ccc(-n2cc(Cn3ccc4nc(-c5ccccc5F)nc-4c3)nn2)cc1"
measure = "Vd/F"
readout_value = 2.12


Data origin, for the record: ChEMBL document CHEMBL4219241
